assay: Assessment of solubility (McIlvaine buffers, 24 h shake, UPLC-UV); type: physicochemical; conditions: pH 6.8, aqueous buffer, kinetic from dmso stock
Classify by measured solubility at 24 h: criterion met if it is equal to or exceeds 80 µg/mL, criterion not met if it is smaller.

In [3]: df
Out[3]:
                                   molecule     assigned_class
0  CCc1cc(COc2c(C)cccc2-c2cccc(-n3ncc(C(=O)O)c3OC)n2)cc2c1CN(C1COC1)CC2 [Compound 249]      criterion met
1  COc1c(C(=O)O)cnn1-c1cccc(-c2cc(C)cc(C)c2OCc2ccc3c(c2C)CCN(C2CCOCC2)C3)n1 [Compound 180]  criterion not met
2  CCOc1c(C(=O)O)cnn1-c1cccc(-c2cccc(C)c2OCc2ccc3c(c2C)CN(C2CCOCC2)C3)n1 [Compound 119]      criterion met
3  CC[C@H](C)Oc1c(C(=O)O)cnn1-c1cccc(-c2cccc(C)c2OCc2ccc3c(c2C)CCN(C2CCCOC2)C3)n1 (stereo partly shown) [Compound 135]      criterion met

----------
The entries below come with measured solubility at 24 h values attached.
assay: Assessment of solubility (McIlvaine buffers, 24 h shake, UPLC-UV); assay type: physicochemical; details: pH 6.8, aqueous buffer, kinetic from dmso stock
Experimental endpoint: solubility at 24 h

In [3]: df
Out[3]:
                                   molecule  experimental_endpoint  value_measured
0  CCOc1c(C(=O)O)cnn1-c1cccc(-c2cccc(C)c2OCc2ccc3c(c2)CCN([C@@H]2CCOC2)C3)n1     solubility at 24 h        94 µg/mL
1  COc1c(C(=O)O)cnn1-c1cccc(-c2cccc(C)c2OCc2ccc3c(c2C)CCN([C@H]2CCOC2)C3)n1     solubility at 24 h        75 µg/mL
2  CCOc1c(C(=O)O)cnn1-c1cccc(-c2cccc(Cl)c2OCc2ccc3c(c2)CCN(CCOC)C3)n1     solubility at 24 h        89 µg/mL
3  Cc1cccc(-c2cccc(-n3ncc(C(=O)O)c3OC(C)C)n2)c1OCc1ccc2c(c1)CCN([C@@H]1CCCOC1)C2     solubility at 24 h        84 µg/mL
4  COc1c(C(=O)O)cnn1-c1cccc(-c2cccc(C)c2OCc2ccc3c(c2)CCN(CC2COCCO2)C3)n1 (stereo not shown)     solubility at 24 h        96 µg/mL
5  CCOc1c(C(=O)O)cnn1-c1cccc(-c2cccc(C)c2OCc2ccc3c(c2C)CCN(C2CCOCC2)C3=O)n1     solubility at 24 h        78 µg/mL
6  COc1c(C(=O)O)cnn1-c1cccc(-c2cccc(C(F)(F)F)c2OCc2ccc3c(c2)CCN(C2COC2)C3)n1     solubility at 24 h        82 µg/mL

----------
test: Assessment of solubility (McIlvaine buffers, 24 h shake, UPLC-UV); assay type: physicochemical; conditions: pH 4.5, aqueous buffer, kinetic from dmso stock
Experimental endpoint: solubility at 24 h (µg/mL)

>>> print(df.to_string())
                                   compound  reading_unit  value_measured
0  COc1c(C(=O)O)cnn1-c1cccc(-c2cccc(C)c2OCc2ccc3c(c2)CCN(C2CCOCC2C)C3)n1 (stereo not shown)         µg/mL              90
1  COc1c(C(=O)O)cnn1-c1cccc(-c2cccc(C)c2OCc2ccc3c(c2)CCN(C2CC(C)(C)OC(C)(C)C2)C3)n1         µg/mL              67
2  CCOc1c(C(=O)O)cnn1-c1cccc(-c2cccc(C)c2OCc2ccc3c(c2)CCN(C(C)C)C3)n1         µg/mL              73
3  CCOc1c(C(=O)O)cnn1-c1cccc(-c2cccc(C)c2OCc2ccc3c(c2C)CCN(C(C)COC)CC3)n1 (stereo not shown)         µg/mL              77
4  COc1c(C(=O)O)cnn1-c1cccc(-c2cccc(C)c2OCc2cc(C)c3c(c2C)CN(C2CCOCC2)C3)n1         µg/mL              92
5  CCOc1c(C(=O)O)cnn1-c1cccc(-c2cccc(C)c2OCc2ccc3c(c2C)CCN([C@H]2CCCOC2)C3)n1         µg/mL              79
6  CCOc1c(C(=O)O)cnn1-c1cccc(-c2cccc(C)c2OCc2ccc3c(c2C)CCN(CC2CCOC(C)(C)C2)C3)n1 (stereo not shown)         µg/mL              75
